Target: T1, recombinant human CD38 extracellular domain protein (ACROBiosystems, Cat #CD8-H5224) (human, UniProt P28907 43-300)
T1 construct: Bought protein; also called recombinant human CD38 protein
Test: ELISA screen of hybridoma supernatants on recombinant CD38
endpoint-name: binding result

>>> result("Clone F (antibody, V domains shown, Murine hybridoma antibody tested as supernatant; also called anti-CD38 murine hybridoma clone F) VH: EVQLQQSGAEFVRPGASVKLSCTASGFNIKDSLMHWVKQRPEQGLEWIGWIDPEDDKTKYAPKFQDEATLTADTSSNTAYLHLSSLTSEDTAIYYCARRFLRGFAYWGQGTLVTVSA VL: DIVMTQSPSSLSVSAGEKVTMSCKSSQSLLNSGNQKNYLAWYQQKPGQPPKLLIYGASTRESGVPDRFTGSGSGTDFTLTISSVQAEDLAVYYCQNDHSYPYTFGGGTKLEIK")
"binds"
>>> result("Clone D (antibody, V domains shown, Murine hybridoma antibody tested as supernatant; also called anti-CD38 murine hybridoma clone D) VH: QIQLVQSGPELKKPGETVKISCKASGYTFTNYGMNWVKQAPGEDLKWMGWLNTNTGEPTYAEEFKGRFAFSLETSASTAYLQINNLRNEDTATYFCARWYYGSSDNSYAMDYWGQGTSVTVSS VL: ETIVTQFPASLSMAIGEKVTIRCITSTDIDDDMNWYQQRPGEPPKLLISEGNTLRPGVPSRFSSSGYGTDFVFTFENMLSEDVADYYCLQSDSLPYTVGGGTRLEIK")
"binds"
>>> result("Clone H (antibody, V domains shown, Murine hybridoma antibody tested as supernatant; also called anti-CD38 murine hybridoma clone H) VH: QVPLHQSGPELIKPGASLKISCKASDSAFNNSWMNWVRQRPGKGLEWIGWIYPGDDDTKYNGKFMGKATLTADKSSGTAYMQLSSLTSEDSAVYFCARGRWGMDYWGQGTSVTVSS VL: DIVMTQFHNFMSTSVGDRVNINCKASQNVVTAVAWYQQKPGQSPKLLIYWASTRHTGVPDRFTGSGSGTDFTLTISNVQSEDLADYFCQQYSNYPFTFGSGTKLEIK")
"binds"
>>> result("Clone G (antibody, V domains shown, Murine hybridoma antibody tested as supernatant; also called anti-CD38 murine hybridoma clone G) VH: QVQLQQPGPELVKPVASVKISCKTSDYAFSSSWMNWVKQRPGKGLEWIGWIYPGDGDTNYNGKFKGKATLTADKSSSTAYMQLSSLTSEDSAVYFCARGRWGMDNWGQGTSVTVSS VL: DIVMTQSHKFMSTSVGDRVSITCKASQNVVTAVAWYQQKPGQSPKLLIYWASSRHTGVPDRFTGSGSGTDFTLTISNVQSEDLADYFCQQYSNYPFTFGSGTKLEIK")
"binds"
>>> result("Clone I (antibody, V domains shown, Murine hybridoma antibody tested as supernatant; also called anti-CD38 murine hybridoma clone I) VH: QVPLQQSGPELVKPGASVKISCKASDSAFNNSWTIWVRQRPGKGLEWIGWIYPGDDDTKYNGKFMGKATLTADKSSGTAYMQLSSLTSEDSAVYFCARGRWGMDYWGQGTSVTVSS VL: DIVMTQSRKFMSTSVGDRVSISCKASQNVVTAVAWYQQKPGQSPKLLIYWASTRHTGVPDRFTGSGSGTDFTLTISNVQSEDLADYFCQQYSNYPFTFGSGTELEIK")
"binds"
>>> result("Clone A (antibody, V domains shown, Murine hybridoma antibody tested as supernatant; also called anti-CD38 murine hybridoma clone A) VH: QVQLQQSGAELVKPGASVKISCKASGYTFSNYWIEWVKQRPGLGLEWIGDILPGSGTTNYNEKFKGKATFTADTSSNTAYMQLSSLTSEDSAVYYCAGYGNYLWFTYWGQGTLVTVSA VL: DIQMNQSPSSLSASLGDTITITCHASQNINVWLSWYQQKPGNIPKLLIYKASNLHTGVPSRFSGSGSGTGFTLTISSLQPEDIATYYCQQGQSYPYTFGGGTKLEIK")
"binds"
>>> result("Clone C (antibody, V domains shown, Murine hybridoma antibody tested as supernatant; also called anti-CD38 murine hybridoma clone C) VH: EVQLQQSGTVLARPGASVKMSCKASGYTFTRYWMHWVKQRPGQDLEWIGGFYPGNSDTRYNQKFKDKAKLTAVTSTSTAYMELSSLTNEDSAVYYCTRGDRHDEGFAYWGQGTLVTVSA VL: DIQMTQSPASLSASVGETVTITCRASGNIHNYLAWYQQKQGKSPQLLVYNAKTLPDGVPSRFSGSGSGTQYSLKINSLQPEDFGTYYCQNIWTNYTFGGGTKLEIK")
"binds"
